experimental.target: EGFR Exon19Del (Homo sapiens, UniProt P00533, DEL746-750)
Construct: purchased Carna Bio
Sequence (P00533 with tags, fused parts or gaps DEL746-750 limits assumed): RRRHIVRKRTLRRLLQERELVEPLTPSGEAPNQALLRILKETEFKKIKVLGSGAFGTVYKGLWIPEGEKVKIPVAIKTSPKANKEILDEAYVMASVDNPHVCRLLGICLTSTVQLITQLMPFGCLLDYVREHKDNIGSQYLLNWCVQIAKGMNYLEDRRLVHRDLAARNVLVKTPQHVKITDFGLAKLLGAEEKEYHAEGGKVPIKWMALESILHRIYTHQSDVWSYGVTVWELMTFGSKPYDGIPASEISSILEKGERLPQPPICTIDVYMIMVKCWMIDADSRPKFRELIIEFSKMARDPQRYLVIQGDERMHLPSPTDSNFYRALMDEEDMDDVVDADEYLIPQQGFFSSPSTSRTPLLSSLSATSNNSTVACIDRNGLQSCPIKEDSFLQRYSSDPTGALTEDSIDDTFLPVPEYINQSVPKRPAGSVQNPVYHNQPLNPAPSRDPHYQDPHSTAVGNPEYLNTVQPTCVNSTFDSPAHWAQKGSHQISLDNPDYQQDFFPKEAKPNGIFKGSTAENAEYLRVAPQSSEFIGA
assay.summary: Inhibition of EGFR Exon19Del biochemical enzymatic activity (HTRF)
condition.summary: EGFR Exon19Del, 1 mM ATP, 1 h at room temperature, read-out: IC50 @Del19
value.type: IC50 (µM)

Example entries and their recorded answers appear below.
# compound, IC50 / µM
rows = [
    ("Cc1cc2cc(n1)-c1cnn(C)c1OCCN1CC3CCC(C3)(C1)n1c(nc3ccc(N4CC5CC4CN5C)cc31)NC2=O (single isomer, unassigned) [Example B53B]", 0.0052),
    ("Cc1cc2cc(n1)-c1cnn(C)c1OCCN1CC3CCC(CC3)(C1)n1c(nc3ccc(N4CCN(C(C)C)CC4)cc31)NC2=O", 0.02),
]

(1) Cc1cc2cc(n1)-c1cnn(C)c1OCCC[C@@H](C)Cn1c(nc3ccc4c(c31)CCN(C1COC1)C4)NC2=O
(2) Cc1cc2cc(n1)-c1cnn(C)c1OCCN1CCOCC(C1)n1c(nc3ccccc31)NC2=O (single isomer, unassigned) [Example B7A]
Enquiry: Smaller IC50 value, 1 vs 2 ? Your choice should be expressed through its label.
Return: 1
(1: 0.0058 µM, 2: 1.21 µM)
